# studyTarget: T1, human single-chain CD1a-β2M recombinant protein (Human B2M-CD1a ECD-Avi-His6) (human)
# T1 construct: Biotinylated in the HTRF, phage selection and Gyrolab assays; also called human CD1a; CD1a protein
# T1 sequence (chain, as listed by the source limits assumed): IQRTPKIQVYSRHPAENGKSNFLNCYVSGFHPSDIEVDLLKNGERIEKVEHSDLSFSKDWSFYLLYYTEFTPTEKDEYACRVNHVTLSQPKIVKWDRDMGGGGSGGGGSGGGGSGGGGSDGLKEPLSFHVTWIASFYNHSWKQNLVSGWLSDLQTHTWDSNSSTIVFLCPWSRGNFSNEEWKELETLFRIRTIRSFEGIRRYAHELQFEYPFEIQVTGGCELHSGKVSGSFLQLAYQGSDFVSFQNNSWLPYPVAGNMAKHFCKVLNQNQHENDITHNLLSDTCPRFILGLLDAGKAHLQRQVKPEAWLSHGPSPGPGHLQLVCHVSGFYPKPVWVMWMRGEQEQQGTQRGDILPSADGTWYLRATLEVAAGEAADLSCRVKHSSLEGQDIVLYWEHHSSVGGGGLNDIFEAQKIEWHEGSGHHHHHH
# methodDescription: SPR (Biacore), IgG; antigen taken as human CD1a
Measured Kd by item
Entry rule: numbers only, all in pM.

Solved cases below.
Ab673 (antibody, human IgG1, kappa, V domains shown, Optimized variant of Ab138; human IgG1 effector null / kappa; HC with or without terminal lysine) VH: EVQLVESGGGLVQPGGSLRLSCAASGFTFTDHYMHWVRQAPGKGLEWVAHTRDKAGGYTTESNPAVKGRFTISRDNAKNSLYLQMNSLRAEDTAVYYCARETTRIPTGWFAYWGQGTLVTVSS VL: DIQMTQSPSSLSASVGDRVTITCLASEDIYFDLAWYQQKPGKAPKLLIYGGDRLKEGVPSRFSGSGSGTDYTLTISSLQPEDFATYYCQQSYSYPYTFGQGTKLEIKR = 210
Ab616 (antibody, human IgG1, kappa, V domains shown, Optimized variant of Ab138; human IgG1 effector null / kappa; HC with or without terminal lysine) VH: EVQLVESGGGLVQPGGSLRLSCAASGFTFEDHYMHWVRQAPGKGLEWVGHISGSAGGYTTESNPAVKGRFTISRDNAKNSLYLQMNSLRAEDTAVYYCARETTRIPTGWFAYWGQGTLVTVSS VL: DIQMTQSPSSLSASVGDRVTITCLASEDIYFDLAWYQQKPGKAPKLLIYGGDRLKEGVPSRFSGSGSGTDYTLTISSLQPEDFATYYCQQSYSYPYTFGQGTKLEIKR = 460
Ab689 (antibody, human IgG1, kappa, V domains shown, Optimized variant of Ab138; human IgG1 effector null / kappa; HC with or without terminal lysine) VH: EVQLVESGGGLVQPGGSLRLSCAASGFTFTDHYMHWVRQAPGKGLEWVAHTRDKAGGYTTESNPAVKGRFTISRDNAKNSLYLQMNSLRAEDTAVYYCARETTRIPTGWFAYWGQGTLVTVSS VL: DIQMTQSPSSLSASVGDRVTITCLASEDIYFDLAWYQQKPGKAPKLLIYGGDRLQEGVPSRFSGSGSGTDYTLTISSLQPEDFATYYCQQSYSYPYTFGQGTKLEIKR = 3590

Provide measured Kd value, entry: Ab579 (antibody, human IgG1, kappa, V domains shown, Optimized variant of Ab138; human IgG1 effector null / kappa; HC with or without terminal lysine) VH: EVQLVESGGGLVQPGGSLRLSCAASGFTFTDHYMTWVRQAPGKGLEWVAFIRNSAGGYTTESNPAVKGRFTISRDNAKNSLYLQMNSLRAEDTAVYYCARETTRIPTGWFAYWGQGTLVTVSS VL: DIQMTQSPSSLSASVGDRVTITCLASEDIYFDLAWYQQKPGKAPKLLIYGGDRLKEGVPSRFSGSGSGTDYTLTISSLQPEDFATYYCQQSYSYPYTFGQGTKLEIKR 270

Let me know recorded Kd for Ab559 (antibody, human IgG1, kappa, V domains shown, Optimized variant of Ab138; human IgG1 effector null / kappa; HC with or without terminal lysine) VH: EVQLVESGGGLVQPGGSLRLSCAASGFTFTDHYMHWVRQAPGKGLEWVAFIRNKAGGYTTESNPAVKGRFTISRDNAKNSLYLQMNSLRAEDTAVYYCARETTTIPTGWFAYWGQGTLVTVSS VL: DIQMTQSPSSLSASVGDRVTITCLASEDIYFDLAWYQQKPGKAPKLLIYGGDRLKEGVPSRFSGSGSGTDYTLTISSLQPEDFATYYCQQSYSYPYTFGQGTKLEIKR , thanks. 390
